- Tested on: PolyAU double stranded RNA
- MEASUREMENT_DESCRIPTION: Fluorescence intercalator displacement (FID) assay, SYBR-safe probe
- MEASUREMENT_PARAMETERS: 20 μM compound, 30° C., lower % = stronger binding
MEASURED_ATTRIBUTE: % Normalised Fluorescence with polyAU RNA

INSERT INTO measurements (smiles_notation, readout_value) VALUES
  ('O=C(Nc1c[nH]c(C(=O)Nc2c[nH]c(C(=O)NCCN3CCOCC3)c2)c1)c1ccc(/C=C/c2cnc3ccccc3c2)cc1', '59%'),
  ('COc1cccc(/C=C/c2ccc(C(=O)Nc3cc(C(=O)Nc4cc(C(=O)NCCC(=N)NC(C)C)n(C)c4)n(C)c3)cn2)c1', '25%'),
  ('Cn1cc(NC(=O)c2ccc(/C=C/c3cnc4ccccc4c3)cc2)cc1C(=O)Nc1c[nH]c(C(=O)NCCC(=N)N)c1', '21%'),
  ('Cn1cc(NC(=O)c2ccc(/C=C/c3ccc4nonc4c3)cc2)cc1C(=O)Nc1c[nH]c(C(=O)NCCN2CCOCC2)c1', '30%');
